System: SK-MEL-5 melanoma
experiment.notes: NCI-60 one-dose screen, 48 h (100 = growth as untreated, 0 = no growth, -100 = all killed)
setup.conditions: 10 µM unless noted
The panel holds about 83,000 compounds, 20% with a hit somewhere; the sample as a whole holds those more often.
measure: growth (%)
Just the number please, in %, no unit attached.

Use these answered entries as a reference point.
[
  {
    "compound": "CCC(c1ccc(OC)cc1)C(CC)c1ccc(O)c(CN2CCCC2)c1 (centres undefined)",
    "growth / %": -91.8
  },
  {
    "compound": "COc1ccccc1OCC(=O)Nc1sc2c(c1C(N)=O)CCC2",
    "growth / %": 70
  },
  {
    "compound": "Cc1ccccc1C(=O)c1ccccc1C(=O)O",
    "growth / %": 104
  }
]

Now let's try a different one.
GET /values?readout=growth&item= COc1ccc(/C=N/NC(=O)Cn2c(Cc3cccc4ccccc34)nc3ccccc32)cc1 96.1

Entry source: PubChem BioAssay (NCI)
